target-desc: T1, human alpha2-Antiplasmin (human, UniProt P08697 40-491)
T1 construct: Bought (antibodies online, ABIN2544306); also called human A2AP; a2AP
T1 sequence: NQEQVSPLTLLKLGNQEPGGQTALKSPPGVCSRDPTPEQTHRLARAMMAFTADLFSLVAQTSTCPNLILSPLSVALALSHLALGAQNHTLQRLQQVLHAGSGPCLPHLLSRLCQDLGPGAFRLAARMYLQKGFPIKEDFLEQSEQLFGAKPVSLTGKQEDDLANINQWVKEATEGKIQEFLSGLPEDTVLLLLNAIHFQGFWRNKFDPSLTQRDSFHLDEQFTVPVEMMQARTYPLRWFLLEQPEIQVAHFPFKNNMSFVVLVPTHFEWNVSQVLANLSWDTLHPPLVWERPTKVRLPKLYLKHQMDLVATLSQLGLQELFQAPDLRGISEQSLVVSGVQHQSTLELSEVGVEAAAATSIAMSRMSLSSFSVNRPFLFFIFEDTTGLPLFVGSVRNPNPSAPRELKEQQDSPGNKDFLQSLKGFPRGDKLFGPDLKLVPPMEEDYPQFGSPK
assay-info: ELISA, coated antigen, 1st exp.
Label Met when EC50 is strictly below 6 nM; at or above that, label Not met.

Answered cases to consult:
binder	class-label
TPP-14308 hIgG1 (antibody, V domains shown, starting point of the germlining) VH: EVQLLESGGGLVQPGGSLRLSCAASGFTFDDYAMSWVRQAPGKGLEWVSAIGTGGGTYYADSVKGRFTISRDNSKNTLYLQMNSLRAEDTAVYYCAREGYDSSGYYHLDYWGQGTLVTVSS VL: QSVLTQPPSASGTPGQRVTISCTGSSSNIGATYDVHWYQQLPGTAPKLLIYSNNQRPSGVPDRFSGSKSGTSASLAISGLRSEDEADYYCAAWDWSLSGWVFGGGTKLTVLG	Met
TPP-14293 hIgG1 (antibody, V domains shown) VH: EVQLLESGGGLVQPGGSLRLSCAASGFTFDDYAMSWVRQAPGKGLEWVSAIGTGGGTYYADSVKGRFTISRDNSKNTLYLQMNSLRAEDTAVYYCDREYYDSSGYYHLDYWGQGTLVTVSS VL: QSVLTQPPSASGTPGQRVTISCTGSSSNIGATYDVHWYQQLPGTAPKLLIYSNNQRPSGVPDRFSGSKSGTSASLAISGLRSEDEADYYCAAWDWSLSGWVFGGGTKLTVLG	Not met
TPP-14314 hIgG1 (antibody, V domains shown, Human IgG1 lambda) VH: EVQLLESGGGLVQPGGSLRLSCAASGFTFDDYAMSWVRQAPGKGLEWVSAIGTGGGTYYADSVKGRFTISRDNSKNTLYLQMNSLRAEDTAVYYCAREYYDSSGYYHLVYWGQGTLVTVSS VL: QSVLTQPPSASGTPGQRVTISCTGSSSNIGATYDVHWYQQLPGTAPKLLIYSNNQRPSGVPDRFSGSKSGTSASLAISGLRSEDEADYYCAAWDVSLSGWVFGGGTKLTVL	Not met
TPP-14303 hIgG1 (antibody, V domains shown) VH: EVQLLESGGGLVQPGGSLRLSCAASGFTFDDYAMSWVRQAPGKGLEWVSAIGTGGGTYYADSVKGRFTISRDNSKNTLYLQMNSLRAEDTAVYYCAREDYDSSGYYHLDYWGQGTLVTVSS VL: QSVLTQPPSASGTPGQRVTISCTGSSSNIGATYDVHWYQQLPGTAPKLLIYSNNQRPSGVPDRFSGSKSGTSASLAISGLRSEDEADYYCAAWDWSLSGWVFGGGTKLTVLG	Not met
TPP-14318 hIgG1 (antibody, V domains shown) VH: EVQLLESGGGLVQPGGSLRLSCAASGFTFDDYAMSWVRQAPGKGLEWVSAIGTGGGTYYADSVKGRFTISRDNSKNTLYLQMNSLRAEDTAVYYCAREYYDSSGYYHLEYWGQGTLVTVSS VL: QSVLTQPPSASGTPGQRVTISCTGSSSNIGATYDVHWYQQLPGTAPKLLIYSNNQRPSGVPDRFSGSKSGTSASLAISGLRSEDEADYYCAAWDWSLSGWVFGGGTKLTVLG	Met

Does this binder meet the criterion EC50 < 6 nM? TPP-14323 hIgG1 (antibody, V domains shown) VH: EVQLLESGGGLVQPGGSLRLSCAASGFTFDDYAMSWVRQAPGKGLEWVSAIGTGGGTYYADSVKGRFTISRDNSKNTLYLQMNSLRAEDTAVYYCAREYYDSSGYYHLTYWGQGTLVTVSS VL: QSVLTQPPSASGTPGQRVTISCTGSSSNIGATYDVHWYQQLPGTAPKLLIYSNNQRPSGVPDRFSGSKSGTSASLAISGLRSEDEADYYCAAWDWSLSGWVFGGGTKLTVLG
Not met

Lookup TPP-14313 hIgG1 (antibody, V domains shown, Human IgG1 lambda) VH: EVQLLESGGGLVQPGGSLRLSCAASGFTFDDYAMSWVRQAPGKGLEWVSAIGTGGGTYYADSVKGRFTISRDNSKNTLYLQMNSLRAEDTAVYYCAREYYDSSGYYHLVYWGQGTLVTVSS VL: QSVLTQPPSASGTPGQRVTISCTGSSSNIGATYDVHWYQQLPGTAPKLLIYSNNQRPSGVPDRFSGSKSGTSASLAISGLRSEDEADYYCAAWDWSLSGWVFGGGTKLTVL
Met

Lookup TPP-14305 hIgG1 (antibody, V domains shown) VH: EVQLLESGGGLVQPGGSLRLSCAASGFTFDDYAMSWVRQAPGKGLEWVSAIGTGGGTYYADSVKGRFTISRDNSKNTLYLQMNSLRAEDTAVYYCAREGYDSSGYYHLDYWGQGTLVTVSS VL: QSVLTQPPSASGTPGQRVTISCTGSSSNIGATYDVHWYQQLPGTAPKLLIYSNNQRPSGVPDRFSGSKSGTSASLAISGLRSEDEADYYCWAWDDSLSGWVFGGGTKLTVLG
Not met

Where these numbers come from: patent US20240010750A1
